Entry source: PubChem BioAssay (NCI)

Test system: U251 CNS
EXPERIMENTAL_DETAILS: NCI tumour cell line growth inhibition, 48 h
ATTRIBUTE_MEASURED: TGI

Use these answered entries as a reference point.
CC1=NN(C(=O)c2ccc(Cl)cc2)C(=O)/C1=C/c1ccc(O)cc1    > 100 µM
Cc1ccc(C2=C(c3ccccc3)C(Br)(c3ccccc3)C(c3ccccc3)=C2c2ccc(C)cc2)cc1    > 100 µM

Bench note, U251 CNS: entry Cc1nn(-c2nc3ccccc3[nH]2)c2c1C(c1ccc3c(c1)OCO3)CC(=O)N2 (stereo unspecified) , its TGI = 4.79 µM

Bench note, U251 CNS: entry `Cc1cccc2c1C/C(=C1\CCc3c(C)cccc31)C2=O` , its TGI = > 100 µM

Bench note, U251 CNS: entry `NS(=O)(=O)c1nnc(/N=C(/CCC(=O)O)C(=O)O)s1` , its TGI = > 100 µM

Bench note, U251 CNS: entry `COc1ccc2nc(C)cc(Nc3ccccc3O)c2c1` , its TGI = 35.3 µM

Bench note, U251 CNS: entry `O=C1NC(=NC2CCCCC2)C2(CCN(CCCC3(c4ccc(F)cc4)OCCO3)CC2)N1c1ccccc1` , its TGI = 30.2 µM

Bench note, U251 CNS: entry `Cn1c(=O)c(C(=O)NC(=O)OCc2ccccc2)cn(CCSCCOC(=O)NCCCCCCNC(=O)OCCSCCn2cc(C(=O)NC(=O)OCc3ccccc3)c(=O)n(C)c2=O)c1=O` , its TGI = > 100 µM

Bench note, U251 CNS: entry CC1(C)C2C/C(=C\c3ccccc3)C(=O)C1C2 (stereo unspecified) , its TGI = > 100 µM

Bench note, U251 CNS: entry `CC(C)c1ccc2[nH]c(O)c(C3=Nc4ccccc4C3=O)c2c1` , its TGI = 41.4 µM

Bench note, U251 CNS: entry `N=C(N)c1ccc(-c2ccc(-c3cccs3)s2)nc1` , its TGI = 3.35 µM

Bench note, U251 CNS: entry c1ccc(SC(CCCCOC2CCCCO2)Sc2ccccc2)cc1 (stereo unspecified) , its TGI = > 100 µM
